For each entry below, report its inhibition value.
target_desc: Histone-lysine N-methyltransferase NSD2 (Homo sapiens)
experimental_details: NSD2 histone methyltransferase inhibitors, primary screen, biochemical, AlphaScreen, single concentration, set 2 (AID 743445)
experimental_context: NSD2 peptide methylation, 120 min, at 12.5 µM, hits give high values
Out of some 310,000 compounds screened, about 1,700 (0.55%) were called active. The sample holds actives, similar compounds and a random draw of the others, so the mix is not that of the screen.
Answers are plain numbers, in %.

Look over these answered cases.
compound=COc1ccc(CCNC(=O)CSc2nc3c([nH]2)c(=O)n(C)c(=O)n3C)cc1 target_desc="Histone-lysine N-methyltransferase NSD2 (Homo sapiens)" unit_label=% recorded_value=-8.19
compound=Cc1ccc(S(=O)(=O)N(C)C)cc1NC(=O)COC(=O)/C=C/c1cccs1 target_desc="Histone-lysine N-methyltransferase NSD2 (Homo sapiens)" unit_label=% recorded_value=0.889
compound=COc1ccc(CN(CCN2CCOCC2)C(=O)c2ccc(C)cc2)cc1OC target_desc="Histone-lysine N-methyltransferase NSD2 (Homo sapiens)" unit_label=% recorded_value=6.86
compound="CC(C)(C)CC(=O)Nc1nc(C(N)Cc2ccc(C(F)(F)F)cc2)cs1 (stereo not drawn)" target_desc="Histone-lysine N-methyltransferase NSD2 (Homo sapiens)" unit_label=% recorded_value=14
compound=Cc1ccc(NC(=O)Cc2cccc(F)c2)c(S(=O)(=O)N2CCOCC2)c1 target_desc="Histone-lysine N-methyltransferase NSD2 (Homo sapiens)" unit_label=% recorded_value=-1.61

For each entry beneath this line, provide reported inhibition.
1. CCc1ccccc1NC(=O)CSc1nnc(-c2cccs2)o1
2. C/C(CC(=O)NC(C)(C)C)=N\NC(=O)c1ccco1
3. COC(=O)c1nc(NC(=O)c2ccccc2)n[nH]1
4. CN(C)S(=O)(=O)c1cccc(NC(=O)COC(=O)/C=C/c2cccs2)c1
5. Cn1c(=O)c2cc(NC(=O)NCCc3cccs3)ccc2n1Cc1cccc(C(F)(F)F)c1
6. CC(C)(C)c1ccc(CSc2nnc(-c3cccs3)o2)cc1
7. C[C@H]1CCC/C=C/C(=O)c2c(O)cc(O)cc2CC(=O)O1
8. Cc1nn(-c2ccccc2)c(Cl)c1/C=C/C(=O)c1ccc(O)cc1

OUT:
[3.02, -3.83, 64.1, -17, 0.114, -3.66, 5.2, -0.695]

For each entry beneath this line, provide reported inhibition.
1. Cc1cc(C)cc(NC(=O)N2CCC(N(C)CCC(C)C)CC2)c1
2. CSc1ccc(CN2CCC2(C)C(=O)Nc2ccc(C)c(O)c2)cc1 (stereo not drawn)
3. CCN(CC)S(=O)(=O)c1ccc(N2CCN(C)CC2)c(NC(=O)Nc2ccccc2F)c1
4. CCN(CC)S(=O)(=O)c1ccc(N2CCOCC2)c(NC(=O)C(C)Oc2ccc(F)cc2)c1 (stereo not drawn)
5. COc1ccccc1CNC(=O)c1cc(-c2cc(F)ccc2OC)n[nH]1
6. Cc1coc2c(O)cc3c(c12)OC1(N2CCCCC2)C(=O)NCCCC31 (stereo not drawn)
7. Cc1ccc(CSc2nnc(SCC(=O)NN=Cc3cc(Br)ccc3F)s2)cc1

OUT:
1. 6.38
2. -2.34
3. 78.4
4. -1.83
5. 4.87
6. 75.1
7. -1.85

For each entry beneath this line, provide reported inhibition.
1. CC(=O)N(C1=C(Cl)C(=O)c2ccccc2C1=O)c1ccc(C(=O)O)cc1
2. Cc1ccccc1-n1nc(C)c2cc(C(=O)NC3CC3)sc21
3. COc1ccc(-c2cc(NC=O)c3ncc(-c4cc(OC)c(OC)c(OC)c4)n3c2)c(OC)c1
4. COc1cc(C(=O)Nn2c(CC(C)C)nc3ccccc3c2=O)cc(OC)c1OC

OUT:
142
0.032
2.63
-1.2

For each entry beneath this line, provide reported inhibition.
1. CCC(NC(=O)C1C2C=CC3(CN(Cc4ccccc4)C(=O)C13)O2)c1ccccc1 (stereo not drawn)
2. O=C(CSc1nnc(COc2ccccc2)n1-c1ccc(Cl)cc1)Nc1ccc2c(c1)OCO2
3. COc1cccc2cc(/C(C)=N/NC(=O)c3ccco3)oc12
4. COc1ccccc1CCNC(=O)C1CCN(c2nc(C)cc(C)n2)CC1

OUT:
1. -0.276
2. -1.07
3. -1.2
4. -3.97

====

target_desc: Histone-lysine N-methyltransferase NSD2 (Homo sapiens) (UniProt O96028)
Sequence (O96028 whole entry, looked up): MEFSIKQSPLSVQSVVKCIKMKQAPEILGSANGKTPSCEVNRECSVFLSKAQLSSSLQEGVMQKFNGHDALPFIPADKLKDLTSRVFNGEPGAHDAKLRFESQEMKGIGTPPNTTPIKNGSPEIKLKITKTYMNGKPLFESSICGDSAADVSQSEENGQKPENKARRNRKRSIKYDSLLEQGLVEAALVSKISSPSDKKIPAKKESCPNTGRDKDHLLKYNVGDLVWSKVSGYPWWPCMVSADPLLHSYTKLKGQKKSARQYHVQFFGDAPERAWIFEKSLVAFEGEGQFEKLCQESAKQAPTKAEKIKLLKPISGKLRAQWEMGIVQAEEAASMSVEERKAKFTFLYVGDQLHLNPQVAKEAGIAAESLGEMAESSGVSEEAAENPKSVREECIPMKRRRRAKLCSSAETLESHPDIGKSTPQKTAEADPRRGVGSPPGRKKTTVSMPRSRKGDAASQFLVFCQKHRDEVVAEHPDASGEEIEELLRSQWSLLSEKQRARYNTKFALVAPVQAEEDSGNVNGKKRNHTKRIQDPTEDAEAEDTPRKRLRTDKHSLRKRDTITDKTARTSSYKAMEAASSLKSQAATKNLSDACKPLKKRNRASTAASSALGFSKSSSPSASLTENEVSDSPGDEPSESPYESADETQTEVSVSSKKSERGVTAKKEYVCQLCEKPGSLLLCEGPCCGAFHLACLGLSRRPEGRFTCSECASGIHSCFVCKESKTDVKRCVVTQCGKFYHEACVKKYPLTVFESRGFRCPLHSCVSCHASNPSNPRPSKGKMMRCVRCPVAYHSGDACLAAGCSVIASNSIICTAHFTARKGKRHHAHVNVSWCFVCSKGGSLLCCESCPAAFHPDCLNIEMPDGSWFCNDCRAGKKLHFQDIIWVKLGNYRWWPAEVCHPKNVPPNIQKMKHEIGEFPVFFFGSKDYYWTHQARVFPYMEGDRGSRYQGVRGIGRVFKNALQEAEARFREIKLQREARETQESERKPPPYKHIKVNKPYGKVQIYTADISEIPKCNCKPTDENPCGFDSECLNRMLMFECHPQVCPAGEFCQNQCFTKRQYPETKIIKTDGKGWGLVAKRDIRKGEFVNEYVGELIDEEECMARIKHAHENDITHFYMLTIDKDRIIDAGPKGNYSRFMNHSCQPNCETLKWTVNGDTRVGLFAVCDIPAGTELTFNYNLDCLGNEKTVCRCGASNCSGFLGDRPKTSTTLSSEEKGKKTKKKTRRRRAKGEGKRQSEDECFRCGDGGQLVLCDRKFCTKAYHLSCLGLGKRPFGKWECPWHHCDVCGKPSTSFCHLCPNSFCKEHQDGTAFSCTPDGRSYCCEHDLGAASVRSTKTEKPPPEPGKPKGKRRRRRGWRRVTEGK
experimental_details: NSD2 histone methyltransferase inhibitors, primary screen, biochemical, AlphaScreen, single concentration, set 2 (AID 743445)
experimental_context: NSD2 peptide methylation, 120 min, at 12.5 µM, hits give high values
The whole screen tested about 310,000 compounds, of which about 1,700 (0.55%) were called active. The entries come from a sample that favours actives as a whole.
quantity_measured: inhibition (%)
Give bare numbers, in %.

Look over these answered cases.
molecule="COC(=O)C1=C(C)N(Cc2cccc(C(F)(F)F)c2)C(=NCc2ccccc2)NC1c1ccccc1C(F)(F)F (stereo not given)" recorded_value=-2.64
molecule=COc1ccc(-n2c(COc3ccc(C)cc3)nnc2SCC(=O)Nc2ccc(Oc3ccccc3)cc2)cc1 recorded_value=0.031
molecule=COc1ccc(-c2ccc(C(=O)NC(C)C)c3occc23)c(C)c1 recorded_value=-1.69
molecule="Cc1ccccc1-n1nc(C)c2c1N=C1C(Cl)=CC(Cl)=CN1C2c1ccc(C(=O)O)cc1 (stereo not given)" recorded_value=51.3

Read the next record carefully.
IN: Look up and report inhibition, with Histone-lysine N-methyltransferase NSD2 (Homo sapiens) (UniProt O96028) as system, for `OC[C@@H]1CN(Cc2cccs2)C[C@H](n2cnc3c(NC4CCCC4)ncnc32)O1`
OUT: -1.52
